Each recorded value in this set is attributed to BindingDB's records for doi:10.1016/j.bmcl.2012.01.074.

Molecular target: Phosphatidylinositol 3-kinase regulatory subunit alpha/4,5-bisphosphate 3-kinase catalytic subunit alpha isoform (Homo sapiens, UniProt P27986+P42336)
Sequence (P27986 whole entry, canonical isoform): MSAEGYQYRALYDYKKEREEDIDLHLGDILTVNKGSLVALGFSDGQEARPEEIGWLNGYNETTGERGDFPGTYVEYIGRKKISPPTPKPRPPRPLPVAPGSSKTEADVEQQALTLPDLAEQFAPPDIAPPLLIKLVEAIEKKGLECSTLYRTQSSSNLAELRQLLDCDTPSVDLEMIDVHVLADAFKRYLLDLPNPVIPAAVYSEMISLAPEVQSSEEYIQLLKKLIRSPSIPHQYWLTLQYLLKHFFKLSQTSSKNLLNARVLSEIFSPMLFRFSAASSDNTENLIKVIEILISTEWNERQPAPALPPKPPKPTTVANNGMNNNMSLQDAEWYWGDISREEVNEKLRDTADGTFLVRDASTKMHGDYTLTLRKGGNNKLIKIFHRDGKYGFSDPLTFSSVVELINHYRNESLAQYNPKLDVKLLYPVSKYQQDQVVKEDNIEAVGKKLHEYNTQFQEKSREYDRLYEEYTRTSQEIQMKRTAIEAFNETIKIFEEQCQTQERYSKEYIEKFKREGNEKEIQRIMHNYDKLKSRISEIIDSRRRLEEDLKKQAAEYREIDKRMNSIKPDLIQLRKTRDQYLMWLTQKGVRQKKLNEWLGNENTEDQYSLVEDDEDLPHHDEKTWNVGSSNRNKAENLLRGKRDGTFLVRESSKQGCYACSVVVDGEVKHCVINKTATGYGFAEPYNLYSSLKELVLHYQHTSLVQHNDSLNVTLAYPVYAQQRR
Sequence (P42336 whole entry, canonical isoform): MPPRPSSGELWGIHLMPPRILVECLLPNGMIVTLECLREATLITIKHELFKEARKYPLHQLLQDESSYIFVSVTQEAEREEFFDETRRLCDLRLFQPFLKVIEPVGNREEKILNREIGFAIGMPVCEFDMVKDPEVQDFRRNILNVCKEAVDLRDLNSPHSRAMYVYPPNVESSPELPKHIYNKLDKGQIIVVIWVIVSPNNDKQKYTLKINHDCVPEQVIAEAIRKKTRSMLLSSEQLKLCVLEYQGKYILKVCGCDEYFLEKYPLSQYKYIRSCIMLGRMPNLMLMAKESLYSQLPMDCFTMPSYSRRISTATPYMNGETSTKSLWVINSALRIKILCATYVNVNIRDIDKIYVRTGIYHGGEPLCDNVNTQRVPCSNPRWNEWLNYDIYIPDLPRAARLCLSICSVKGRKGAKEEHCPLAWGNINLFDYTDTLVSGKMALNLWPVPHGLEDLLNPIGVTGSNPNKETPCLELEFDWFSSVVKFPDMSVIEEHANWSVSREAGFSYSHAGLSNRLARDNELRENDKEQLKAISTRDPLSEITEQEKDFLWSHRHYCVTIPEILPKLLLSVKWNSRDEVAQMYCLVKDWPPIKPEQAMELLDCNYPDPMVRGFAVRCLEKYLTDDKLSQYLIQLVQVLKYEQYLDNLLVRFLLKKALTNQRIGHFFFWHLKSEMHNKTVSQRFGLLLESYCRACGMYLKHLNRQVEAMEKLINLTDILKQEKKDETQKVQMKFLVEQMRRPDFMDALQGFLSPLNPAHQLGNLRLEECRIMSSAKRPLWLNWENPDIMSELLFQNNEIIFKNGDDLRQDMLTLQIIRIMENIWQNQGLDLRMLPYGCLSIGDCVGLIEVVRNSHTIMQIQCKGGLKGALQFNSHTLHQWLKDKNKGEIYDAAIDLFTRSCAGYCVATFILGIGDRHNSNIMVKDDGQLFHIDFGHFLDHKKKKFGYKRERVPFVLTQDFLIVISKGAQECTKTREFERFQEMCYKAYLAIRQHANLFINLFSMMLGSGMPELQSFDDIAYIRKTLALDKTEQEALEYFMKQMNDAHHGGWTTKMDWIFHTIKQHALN
Assay: Inhibition of PI3K p110alpha/p85alpha
Property name: pIC50
pIC50 (log units): -log10 of the concentration in mol/L.

Form field pIC50, entry CNC(=O)c1cn2cc(-c3cccc4[nH]ncc34)nc(N3CCOCC3)c2n1 : 6.96

Form field pIC50, entry Oc1cccc(-c2cn3cc(C4CC4)nc3c(N3CCOCC3)n2)c1 : 6.47

Form field pIC50, entry CCNC(=O)c1cn2cc(-c3cccc4[nH]ncc34)nc(N3CCOCC3)c2n1 : 7.04
